assayName: Half life in po dosed human plasma
Format: ADME, organism-based
testReadout: half-life (h)

smilesStr: O=C(CCCN1CCC(O)(c2ccc(Cl)cc2)CC1)c1ccc(F)cc1
testReadout: half-life
unitText: h
reportedMeasurement: 24

###

assayName: Drug excretion in po dosed human
setupConditions: in vivo
testReadout: dose excreted

compound: OCCOCCN1CCN(C2=Nc3ccccc3Sc3ccccc32)CC1 [QUETIAPINE]
testReadout: dose excreted
reportedMeasurement: < 1%

###

assayName: Tmax in human at 9.75 mg, im administered as single dose
Format: ADME, organism-based
setupConditions: in vivo

smilesStr: O=C1CCc2ccc(OCCCCN3CCN(c4cccc(Cl)c4Cl)CC3)cc2N1
Tmax / h: 3

###

Catalogue of compounds with associated Fa
assayName: Drug absorption in po dosed human
Format: ADME, organism-based
setupConditions: in vivo, read-out: Drug absorption

compound: O=C1[C@@H]2[C@H]3CC[C@H](C3)[C@@H]2C(=O)N1C[C@@H]1CCCC[C@H]1CN1CCN(c2nsc3ccccc23)CC1 [LURASIDONE]
Fa: 9 to 19%

compound: CN1CCN(C2=Nc3cc(Cl)ccc3Nc3ccccc32)CC1 [CLOZAPINE]
Fa: 90 to 95%

###

assayName: Oral bioavailability in human
Format: ADME, organism-based
setupConditions: in vivo

molecule: CN1CCN(C2=Nc3cc(Cl)ccc3Nc3ccccc32)CC1 [CLOZAPINE]
bioavailability: 50 to 60%

###

assayName: Half life in im dosed human plasma
Format: ADME, organism-based
testReadout: half-life

smilesStr: O=C(CCCN1CCC(O)(c2ccc(Cl)cc2)CC1)c1ccc(F)cc1
reportedMeasurement: 21 h
